Taken from the supplement of paper PMC10883282.

- Test system: SK-LMS-1
- procedure_summary: relative viability vs DMSO control (72 h) (fraction); higher = more viable cells
- condition_details: 0.3704 µM
Provide the reported relative viability of each item.
Answers are plain numbers.

Here are 3 compounds together with their reported answers.
compound="Cc1cc2c(F)c(Oc3ncnn4cc(OC[C@@H](C)OC(=O)[C@H](C)N)c(C)c34)ccc2[nH]1 [Brivanib_alaninate]" recorded_result=0.998
compound=C[C@@H]1CN(C(=O)c2ccc(NC(=O)c3cc(O[C@H](C)c4c(Cl)ccc(F)c4Cl)c(N)nn3)cc2)C[C@H](C)N1 recorded_result=0.83
compound=CC(=O)c1c(C)c2cnc(Nc3ccc(N4CCNCC4)cn3)nc2n(C2CCCC2)c1=O recorded_result=0.961

Consider the record given below.
Request: Quickly give me recorded relative viability for C=CC(=O)N1CCC(CNc2ncnc(N)c2-c2ccc(Oc3ccccc3)cc2)CC1
Response: 1.05

----------
- System: G401
- procedure_summary: relative viability vs DMSO control (72 h) (fraction); higher = more viable cells
- condition_details: 0.00457 µM
Provide the reported relative viability of each item.
Give bare numbers.

Here are 5 compounds together with their reported answers.
smiles_repr=C#Cc1cccc(Nc2ncnc3cc4c(cc23)OCCOCCOCCO4)c1 recorded_result=1.06
smiles_repr=O=C1CCc2c(Oc3ccc4c(c3)[C@@H]3[C@H](O4)[C@H]3c3nc4cc(C(F)(F)F)ccc4[nH]3)ccnc2N1 recorded_result=1.02
smiles_repr=CN(C)CCCOc1ccc(-c2ccc3ncc4c(c3c2)n(C2CCOCC2)c(=O)n4C)cn1 recorded_result=1.05
smiles_repr=COc1cc(N2CCC(N3CCN(C)CC3)CC2)ccc1Nc1ncc(Cl)c(Nc2ccccc2P(C)(C)=O)n1 recorded_result=0.972
smiles_repr=Cc1c2oc3c(C)ccc(C(=O)N[C@@H]4C(=O)N[C@H](C(C)C)C(=O)N5CCC[C@H]5C(=O)N(C)CC(=O)N(C)[C@@H](C(C)C)C(=O)O[C@@H]4C)c3nc-2c(C(=O)N[C@@H]2C(=O)N[C@H](C(C)C)C(=O)N3CCC[C@H]3C(=O)N(C)CC(=O)N(C)[C@@H](C(C)C)C(=O)O[C@@H]2C)c(N)c1=O recorded_result=0.441

Request: Quickly give me recorded relative viability for COc1cc2ncnc(Nc3ccc(F)c(Cl)c3)c2cc1OCCCN1CCOCC1
Response: 0.987

----------
Provide the reported relative viability of each item.
- System: KHOS-240S
- procedure_summary: relative viability vs DMSO control (72 h) (fraction); higher = more viable cells
- condition_details: 0.00457 µM
One number for each entry.

compound="O=S(=O)(c1cccc2c(O)nccc12)N1CCCNCC1 [Hydroxyfasudil]" assayed_target=KHOS-240S assay_readout="relative viability" recorded_result=1.11
compound="Cc1c2oc3c(C)ccc(C(=O)N[C@@H]4C(=O)N[C@H](C(C)C)C(=O)N5CCC[C@H]5C(=O)N(C)CC(=O)N(C)[C@@H](C(C)C)C(=O)O[C@@H]4C)c3nc-2c(C(=O)N[C@@H]2C(=O)N[C@H](C(C)C)C(=O)N3CCC[C@H]3C(=O)N(C)CC(=O)N(C)[C@@H](C(C)C)C(=O)O[C@@H]2C)c(N)c1=O [Dactinomycin]" assayed_target=KHOS-240S assay_readout="relative viability" recorded_result=0.73
compound="COc1cc(Nc2ncc3c(n2)-c2ccc(Cl)cc2C(c2c(F)cccc2OC)=NC3)ccc1C(=O)O [Alisertib]" assayed_target=KHOS-240S assay_readout="relative viability" recorded_result=1.01
compound="Cc1cc2c(F)c(Oc3ncnn4cc(OC[C@@H](C)OC(=O)[C@H](C)N)c(C)c34)ccc2[nH]1 [Brivanib_alaninate]" assayed_target=KHOS-240S assay_readout="relative viability" recorded_result=1.04

Request: Quickly give me recorded relative viability for CN(C)CCCOc1ccc(-c2ccc3ncc4c(c3c2)n(C2CCOCC2)c(=O)n4C)cn1 [AZD-0156]
Response: 1.08

----------
- System: G401
- procedure_summary: standardised AUC of viability dose-response curve (72 h) (fraction (0-1)); higher = less growth inhibition (more resistant)
assay_readout: standardised AUC
One number for each entry.

Below are some compounds; for each one, tell me its standardised AUC.
1. CCN1CCN(c2ccc(Nc3cc(N(C)C(=O)Nc4c(Cl)c(OC)cc(OC)c4Cl)ncn3)cc2)CC1
2. CN(C)C(=O)c1cc2cnc(Nc3ccc(N4CCNCC4)cn3)nc2n1C1CCCC1
3. CNC(=O)c1c(C)oc2cc(Oc3ncnc4cc(OC)c(OC)cc34)ccc12

Response:
1. 0.719
2. 0.917
3. 0.934

Below are some compounds; for each one, tell me its standardised AUC.
1. Cc1[nH]c(/C=C2\C(=O)Nc3ccccc32)c(C)c1CCC(=O)O [ORANTINIB]
2. CCOc1cc2ncc(C#N)c(Nc3ccc(OCc4ccccn4)c(Cl)c3)c2cc1NC(=O)/C=C/CN(C)C
3. O=C(c1ccc(F)c(F)c1Nc1ccc(I)cc1F)N1CC(O)([C@@H]2CCCCN2)C1
4. CS(=O)(=O)CCNCc1ccc(-c2ccc3ncnc(Nc4ccc(OCc5cccc(F)c5)c(Cl)c4)c3c2)o1
5. C#Cc1cccc(Nc2ncnc3cc4c(cc23)OCCOCCOCCO4)c1

Response:
[0.977, 0.851, 0.732, 0.991, 0.995]

----------
- Tested on: HS729
- procedure_summary: relative viability vs DMSO control (72 h) (fraction); higher = more viable cells
- condition_details: 0.00152 µM
assay_readout: relative viability
Numbers only.

compound="Cc1[nH]c(/C=C2\\C(=O)Nc3ccccc32)c(C)c1CCC(=O)O [Orantinib]" recorded_result=1.08
compound=COc1cc2ncnc(Nc3ccc(F)c(Cl)c3)c2cc1OCCCN1CCOCC1 recorded_result=1.03
compound=C=CC(=O)N1CCC(CNc2ncnc(N)c2-c2ccc(Oc3ccccc3)cc2)CC1 recorded_result=1.04

Below are some compounds; for each one, tell me its relative viability.
1. CS(=O)(=O)CCNCc1ccc(-c2ccc3ncnc(Nc4ccc(OCc5cccc(F)c5)c(Cl)c4)c3c2)o1
2. O=S(=O)(c1cccc2c(O)nccc12)N1CCCNCC1 [Hydroxyfasudil]
3. O=C(c1ccc(F)c(F)c1Nc1ccc(I)cc1F)N1CC(O)([C@@H]2CCCCN2)C1

Response:
1. 0.873
2. 1.05
3. 0.97

----------
- Tested on: RD-ES
- procedure_summary: relative viability vs DMSO control (72 h) (fraction); higher = more viable cells
- condition_details: 0.00051 µM
assay_readout: relative viability

Here are 3 molecules together with their reported answers.
smiles_repr=CCOc1cc2ncc(C#N)c(Nc3ccc(OCc4ccccn4)c(Cl)c3)c2cc1NC(=O)/C=C/CN(C)C recorded_result=1.01
smiles_repr=Cc1cc(F)c(C(=O)Nc2cccc(-c3nncn3C(C)C)n2)cc1-n1cnc(C2CC2)c1 recorded_result=0.988
smiles_repr=C[C@@H]1CN(C(=O)c2ccc(NC(=O)c3cc(O[C@H](C)c4c(Cl)ccc(F)c4Cl)c(N)nn3)cc2)C[C@H](C)N1 recorded_result=0.951

Consider the record given below.
Request: Quickly give me recorded relative viability for COc1cc(N2CCC(N3CCN(C)CC3)CC2)ccc1Nc1ncc(Cl)c(Nc2ccccc2P(C)(C)=O)n1
Response: 0.968

----------
- Test system: SK-LMS-1
- procedure_summary: relative viability vs DMSO control (72 h) (fraction); higher = more viable cells
- condition_details: 0.1235 µM
assay_readout: relative viability
One number for each entry.

Here are 5 compounds together with their reported answers.
compound=COc1cc2ncnc(Nc3ccc(F)c(Cl)c3)c2cc1OCCCN1CCOCC1 recorded_result=1.06
compound=COc1cc(N2CCC(N3CCN(C)CC3)CC2)ccc1Nc1ncc(Cl)c(Nc2ccccc2P(C)(C)=O)n1 recorded_result=1.02
compound=CCS(=O)(=O)N1CC(CC#N)(n2cc(-c3ncnc4[nH]ccc34)cn2)C1 recorded_result=1.06
compound="O=C(/C=C\\n1cnc(-c2cc(C(F)(F)F)cc(C(F)(F)F)c2)n1)NNc1cnccn1 [Selinexor]" recorded_result=0.512
compound=CCOc1cc2ncc(C#N)c(Nc3ccc(OCc4ccccn4)c(Cl)c3)c2cc1NC(=O)/C=C/CN(C)C recorded_result=0.943

Below are some compounds; for each one, tell me its relative viability.
1. CC(=O)c1c(C)c2cnc(Nc3ccc(N4CCNCC4)cn3)nc2n(C2CCCC2)c1=O
2. CNC(=O)c1cccc2cc(Oc3ccnc4cc(OCC5(N)CC5)c(OC)cc34)ccc12
3. CN(C)CCCOc1ccc(-c2ccc3ncc4c(c3c2)n(C2CCOCC2)c(=O)n4C)cn1

Response:
0.998
0.988
0.737

----------
- Tested on: SK-LMS-1
- procedure_summary: relative viability vs DMSO control (72 h) (fraction); higher = more viable cells
- condition_details: 0.01372 µM
Provide the reported relative viability of each item.
Numbers only.

Here are 6 compounds together with their reported answers.
compound=COc1cc(Nc2ncc3c(n2)-c2ccc(Cl)cc2C(c2c(F)cccc2OC)=NC3)ccc1C(=O)O recorded_result=1
compound="O=C(/C=C\\n1cnc(-c2cc(C(F)(F)F)cc(C(F)(F)F)c2)n1)NNc1cnccn1 [Selinexor]" recorded_result=0.856
compound=CCS(=O)(=O)N1CC(CC#N)(n2cc(-c3ncnc4[nH]ccc34)cn2)C1 recorded_result=1.02
compound=COC(=O)c1ccc2c(c1)NC(=O)/C2=C(\Nc1ccc(N(C)C(=O)CN2CCN(C)CC2)cc1)c1ccccc1 recorded_result=1.11
compound=CN(C)CCCOc1ccc(-c2ccc3ncc4c(c3c2)n(C2CCOCC2)c(=O)n4C)cn1 recorded_result=0.891
compound=C[C@@H]1CN(C(=O)c2ccc(NC(=O)c3cc(O[C@H](C)c4c(Cl)ccc(F)c4Cl)c(N)nn3)cc2)C[C@H](C)N1 recorded_result=1.03

Below are some compounds; for each one, tell me its relative viability.
1. COc1cc2ncnc(Nc3ccc(F)c(Cl)c3)c2cc1OCCCN1CCOCC1
2. Cc1cc2c(F)c(Oc3ncnn4cc(OC[C@@H](C)OC(=O)[C@H](C)N)c(C)c34)ccc2[nH]1 [Brivanib_alaninate]
3. Cc1c2oc3c(C)ccc(C(=O)N[C@@H]4C(=O)N[C@H](C(C)C)C(=O)N5CCC[C@H]5C(=O)N(C)CC(=O)N(C)[C@@H](C(C)C)C(=O)O[C@@H]4C)c3nc-2c(C(=O)N[C@@H]2C(=O)N[C@H](C(C)C)C(=O)N3CCC[C@H]3C(=O)N(C)CC(=O)N(C)[C@@H](C(C)C)C(=O)O[C@@H]2C)c(N)c1=O
4. O=S(=O)(c1cccc2c(O)nccc12)N1CCCNCC1 [Hydroxyfasudil]
5. CC(=O)c1c(C)c2cnc(Nc3ccc(N4CCNCC4)cn3)nc2n(C2CCCC2)c1=O

Response:
1.07
1.01
0.664
1.04
1.06

Request: Quickly give me recorded relative viability for CNC(=O)c1cccc2cc(Oc3ccnc4cc(OCC5(N)CC5)c(OC)cc34)ccc12
Response: 1.04
